Data provenance is patent US11149077B2.

Entries and their kd
test.system: T1, human IGF-IR (Homo sapiens, UniProt P08069)
T1 construct: The extracellular domain of human IGF-IR (aa 1-932) was cloned into a mammalian expression vector; made in house
assay.summary: Surface plasmon resonance (BIAcore) binding kinetics and affinity on immobilized IGF-IR
assay.setup: Table 4, optimized 218C04 clones

| molecule | endpoint | val |
| --- | --- | --- |
| 338A05 (protein) VSDVPRDLEVVAATPTSLLISWSDSLKVSRYYRITYGETGGNSPVQEFTVPKQYHTATISGLKPGVDYTITVYAVTPSNIIGRHYGPISINYRTHHHHHH | kd | 3.3 1/s × 10^−4 |

**Query** Recorded kd of 338A06 (protein) VSDVPRDLEVVAATPTSLLISWSARLKVARYYRITYGETGGNSPVQEFTVPKNVYTATISGLKPGVDYTITVYAVTKMRDYRPISINYRT , please.
**Result** 4.3 1/s × 10^−4

**Query** And for 339A01 (protein) VSDVPRDLEVVAATPTSLLISWSTALKVQRYYRITYGETGGNSPVQEFTVPKHSHTATISGLKPGVDYTITVYAVTKMRDYRPISINYRTHHHHHH ?
**Result** 6.7 1/s × 10^−4

**Query** And for 353F10 (protein) VSDVPRDLEVVAATPTSLLISWPTHYKVARYYRITYGETGGNSPVQEFTVPKHTYTATISGLKPGVDYTITVYAVTTTKGLRHYGPISINYRTHHHHHH ?
**Result** 2.1 1/s × 10^−4
